Source: patent US20200283478A1

Molecular target: T1, His-tagged, full-length PCSK9 (human, UniProt Q8NBP7 31-692)
T1 construct: The secreted protein is autocleaved into a prodomain and a catalytic/Cys-rich chain that starts at S153; also called His-PCSK9
T1 sequence (Q8NBP7 other isoform, or with tags, fused parts or gaps limits assumed): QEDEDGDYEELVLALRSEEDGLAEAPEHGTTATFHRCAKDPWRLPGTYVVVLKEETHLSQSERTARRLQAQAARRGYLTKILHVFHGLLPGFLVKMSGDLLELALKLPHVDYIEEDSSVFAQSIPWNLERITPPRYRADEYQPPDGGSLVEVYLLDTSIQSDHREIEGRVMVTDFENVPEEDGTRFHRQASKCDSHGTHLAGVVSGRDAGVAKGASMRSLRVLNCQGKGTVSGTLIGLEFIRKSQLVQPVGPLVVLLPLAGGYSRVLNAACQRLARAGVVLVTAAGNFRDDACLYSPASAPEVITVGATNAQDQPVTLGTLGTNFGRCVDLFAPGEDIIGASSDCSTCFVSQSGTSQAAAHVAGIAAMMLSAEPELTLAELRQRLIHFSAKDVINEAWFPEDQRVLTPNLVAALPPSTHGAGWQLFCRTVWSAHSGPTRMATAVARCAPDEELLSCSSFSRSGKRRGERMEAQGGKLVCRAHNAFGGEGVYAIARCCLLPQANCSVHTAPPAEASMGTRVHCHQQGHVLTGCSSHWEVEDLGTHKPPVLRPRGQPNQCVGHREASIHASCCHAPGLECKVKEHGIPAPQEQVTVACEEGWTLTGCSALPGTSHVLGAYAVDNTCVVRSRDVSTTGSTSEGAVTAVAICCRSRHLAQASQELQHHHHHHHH
Assay: TR-FRET competition; His-PCSK9, competitor EGF(A)-Fc
pIC50: −log10 of the molar value. Square brackets hold non-standard residues; d marks the D form. Ends that are not written are not given here. hArg = N=C(N)NCCCC[C@H](N)C(=O)O
pIC50 listing for selected binders.
measured-quantity: pIC50

binder="WNLVRIGLTR (also: further groups not given here, Structure printed only as a drawing) [Compound 164]" measured_quantity=pIC50 value_qualifier=≤ result=4.30
binder="WNLVRIGLLR (also: further groups not given here, Structure printed only as a drawing) [Compound 147]" measured_quantity=pIC50 value_qualifier== result=5.59
binder="WNLV[hArg]IGLLR (also: further groups not given here, Structure printed only as a drawing) [Compound 214]" measured_quantity=pIC50 value_qualifier== result=5.52
binder="Ac-WNLV[hArg]IGLLR-NH2 (also called Ac-WNLV(homoR)IGLLR-NH2) [Compound 192]" measured_quantity=pIC50 value_qualifier=≤ result=4.30
binder="WNLVRIGLTR (also: further groups not given here, Structure printed only as a drawing) [Compound 170]" measured_quantity=pIC50 value_qualifier=≤ result=4.30
binder="WNLV[hArg]IGLLR (also: further groups not given here, Structure printed only as a drawing) [Compound 208]" measured_quantity=pIC50 value_qualifier== result=6.35
